For each record, write down the corresponding pEC50.
measurement target: recombinant human ALX receptor (Homo sapiens, UniProt P25090)
Sequence (P25090 whole entry): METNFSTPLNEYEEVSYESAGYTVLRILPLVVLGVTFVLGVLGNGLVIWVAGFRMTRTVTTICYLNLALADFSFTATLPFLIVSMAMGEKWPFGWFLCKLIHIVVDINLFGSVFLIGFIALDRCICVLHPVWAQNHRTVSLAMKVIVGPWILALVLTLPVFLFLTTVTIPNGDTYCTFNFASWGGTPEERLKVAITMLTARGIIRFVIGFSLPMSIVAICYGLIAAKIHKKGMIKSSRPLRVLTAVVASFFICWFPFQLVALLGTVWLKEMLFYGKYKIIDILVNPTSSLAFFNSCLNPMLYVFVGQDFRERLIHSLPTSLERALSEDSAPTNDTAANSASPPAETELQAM
protocol: Intracellular calcium measurements (FLIPR), ALX receptor agonistic activity
condition parameters: HEK293-hALXR-Gα16 cells, Fluo-4 calcium signal, normalized to WKYMVm 10 nM
Give bare numbers, as −log10 of the molar value.

Use these answered entries as a reference point.
>>> print(df.to_string())
                                   compound  observed
0  COc1c(F)c(F)c(CC(NC(=O)N[C@H]2CC[C@H](O)CC2)c2nc3ccccc3[nH]2)c(F)c1F (single isomer, unassigned; ent-1)      7.66
1  COc1ccc(C[C@@H](NC(=O)NC2CCN(C(C)=O)CC2)c2nc3ccccc3[nH]2)cc1      6.10

Hi there! I need pEC50 for each item below, if you can.
1. COc1ccc(C[C@@H](NC(=O)NC2CC(C)(C)NC(C)(C)C2)c2nc3ccccc3[nH]2)cc1
2. COc1ccc(C[C@@H](NC(=O)N[C@H](CC(=O)OC(C)(C)C)c2ccccc2)c2nc3ccccc3[nH]2)cc1

[7.85, 5.83]

###

measurement target: recombinant human ALX receptor (Homo sapiens, UniProt P25090)
protocol: Intracellular calcium measurements (FLIPR), ALX receptor agonistic activity
condition parameters: HEK293-hALXR-Gα16 cells, Fluo-4 calcium signal, normalized to WKYMVm 10 nM
Protocol: The ALX receptor agonistic activity of the compounds of formula (I) is determined in accordance with the following experimental method. Intracellular Calcium Measurements: Cells expressing recombinant human ALX receptor and the G-protein Gα16 (HEK293-hALXR-Gα16) were grown to 80% confluency in Growing Medium (GM). […] Changes in fluorescence were monitored before and after the addition of test compounds at lex=488 nm and lem=540 nm. […]
For each record, write down the corresponding log10 EC50.
Record value = log10 of EC50 given in nM.

Hi there! I need log10 EC50 for each item below, if you can.
1. CCc1ccc(CC(NC(=O)N[C@H]2CC[C@H](O)CC2)c2nc3cc(F)ccc3[nH]2)cc1 (single isomer, unassigned; ent-2) [Example 374]
2. COc1ccc(C[C@@H](NC(=O)NC(C)c2ccc(OC(F)F)cc2)c2nc3ccccc3[nH]2)cc1 (stereo partly shown) [Example 271]
3. COc1ccc(C[C@@H](NC(=O)N[C@@H]2CCN(C(=O)OC(C)(C)C)C2)c2nc3ccccc3[nH]2)cc1 [Example 118]
4. COc1ccc(CC(NC(=O)NCc2cc(C3CC3)on2)c2nc3ccccc3[nH]2)cc1 (stereo not shown) [Example 380]
5. COc1cc(F)c(CC(NC(=O)N[C@H]2CC[C@H](O)CC2)c2nc3cc(F)ccc3[nH]2)c(F)c1 (single isomer, unassigned; ent-1) [Example 366]
6. COc1c(F)cc(CC(NC(=O)N[C@H]2CC[C@](C)(O)CC2)c2nc3ccccc3[nH]2)cc1F (mixture of isomers) [Example 243]
7. COc1ccc(C[C@@H](NC(=O)N[C@H]2CC[C@H](O)C2)c2nc3ccccc3[nH]2)cc1 (relative stereo) [Example 172]

[2.78, 2.08, 1.40, 3.04, -0.40, 2.19, 1.18]

###

measurement target: recombinant human ALX receptor (Homo sapiens)
protocol: Intracellular calcium measurements (FLIPR), ALX receptor agonistic activity
condition parameters: HEK293-hALXR-Gα16 cells, Fluo-4 calcium signal, normalized to WKYMVm 10 nM
Counter-ions that a name gives are not always drawn.
parameter measured: pEC50
One number for each entry, as −log10 of the molar value.

Use these answered entries as a reference point.
>>> df
                                   compound  parameter_measured  observed
0  COc1ccc(C[C@@H](NC(=O)N[C@H]2CCNC2)c2nc3ccccc3[nH]2)cc1               pEC50      6.22
1  COc1ccc(C[C@@H](NC(=O)N2CCC3C2CCN3C(=O)OC(C)(C)C)c2nc3ccccc3[nH]2)cc1 (stereo partly shown)               pEC50      6.15

Hi there! I need pEC50 for each item below, if you can.
1. COc1ccc(C[C@@H](NC(=O)Nc2ccon2)c2nc3ccccc3[nH]2)cc1 [Example 379, hydrochloride]
2. COc1ccc(C[C@@H](NC(=O)NC2CCN(C3CC3)CC2)c2nc3ccccc3[nH]2)cc1

[5.96, 7.28]
